All values here come from patent US9951088B2.

# target-entity: long isoform of human D2 receptor (Homo sapiens)
# Sequence (P14416 whole entry, canonical isoform): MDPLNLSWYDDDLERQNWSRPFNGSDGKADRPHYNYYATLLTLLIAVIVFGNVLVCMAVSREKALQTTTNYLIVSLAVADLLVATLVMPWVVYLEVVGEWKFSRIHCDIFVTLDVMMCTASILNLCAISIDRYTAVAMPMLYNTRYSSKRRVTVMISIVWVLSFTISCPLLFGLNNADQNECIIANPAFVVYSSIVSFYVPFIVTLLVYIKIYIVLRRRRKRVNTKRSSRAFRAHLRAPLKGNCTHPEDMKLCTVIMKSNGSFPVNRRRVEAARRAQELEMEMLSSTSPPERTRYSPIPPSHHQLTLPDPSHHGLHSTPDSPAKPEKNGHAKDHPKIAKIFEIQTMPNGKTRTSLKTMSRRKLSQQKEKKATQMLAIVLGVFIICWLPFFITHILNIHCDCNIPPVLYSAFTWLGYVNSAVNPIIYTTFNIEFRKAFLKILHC
# assay-comment: Arrestin Agonist Assay (DRD2L PathHunter CHO-K1 cells, β-arrestin recruitment)
# protocol-conditions: CHO-K1, read-out: β-arrestin (agonist mode) Emax
outcome-measure: Emax

input: Looking for the measured Emax of Clc1cccc(N2CCN(CCCCOc3cccc(-c4cc[nH]n4)n3)CC2)c1Cl [Compound 46] , can you help?
output: 10 to 25%

input: Fill in the blank: the reported Emax of c1cc(OCCCCN2CCc3ccccc3C2)nc(-c2c[nH]cn2)c1 [Compound 51] is ____.
output: < 10%

input: Returns the measured Emax for the input compound. Input: O=c1ccc2ccc(OCCCCN3CCc4cc(F)ccc4C3)nc2[nH]1 [Compound 56]
output: < 10%

input: Would you mind telling me what Emax value was observed for Clc1cccc(N2CCN(CCCCOc3ccc4cn[nH]c4c3)CC2)c1 [Compound 98] ?
output: 25 to 50%

input: Requested field: Emax. Item: O=C1NCCc2ccc(OCCCCN3CCc4nn(-c5ccccc5)cc4C3)nc2N1 [Compound 89]
output: 25 to 50%

input: Could you share which Emax value was measured for CCCOc1cccnc1N1CCN(CCCCOc2ccc3cccc(O)c3n2)CC1 [Compound 11] ?
output: < 10%

input: For O=c1ccc2ccc(OCCCCN3CCc4nn(-c5ccccc5)cc4C3)nc2[nH]1 [Compound 66] , what is its reported Emax?
output: < 10%

input: Look up Emax for this compound: O=C1CCc2ccc(OCCCCN3CCc4nn(-c5ccccc5)cc4C3)nc2N1 [Compound 82]
output: < 10%

input: For the compound shown here, N#Cc1cccc2c1CCN(CCCCOc1ccc3c(n1)NC(=O)CC3)C2 [Compound 78] , give the reported Emax.
output: 50 to 75%

input: I am curious: what Emax value has been reported for N#Cc1ccc2c(c1)CCN(CCCCOc1ccc3c(n1)NC(=O)CC3)C2 [Compound 73] ?
output: < 10%

input: Which Emax value is on record for O=c1ccc2ccc(OCCCCN3CCc4ccsc4C3)nc2[nH]1 [Compound 54] ?
output: < 10%

input: Need Emax of O=C1NCCc2ccc(OCCCCN3CCc4ccsc4C3)nc2N1 [Compound 87] , thanks.
output: < 10%

input: Please give the measured Emax for this compound: COc1ccc(-n2cc3c(n2)CCN(CCCCOc2ccc4c(c2)NC(=O)CC4)C3)cc1 [Compound 39]
output: < 10%

input: Any idea what its Emax is? The compound is Clc1cccc2c1CCN(CCCCOc1cccc(-c3cc[nH]n3)n1)C2 [Compound 45]
output: > 75%

input: Would you mind telling me what Emax value was observed for O=c1ccc2ccc(OCCCCN3CCc4ccccc4C3)nc2[nH]1 [Compound 52] ?
output: 10 to 25%

input: Request the reported Emax associated with Oc1cccc2ccc(OCCCCN3CCN(c4ccccn4)CC3)nc12 [Compound 8]
output: > 75%

input: What does the data say about its Emax? Entry: Oc1cccc2ccc(OCCCCN3CCc4sccc4C3)nc12 [Compound 18]
output: < 10%

input: Look at this compound and give its reported Emax. c1ccc2c(N3CCN(CCCCOc4ccc5cn[nH]c5c4)CC3)cccc2c1 [Compound 92]
output: 25 to 50%

input: Bench note: what Emax did O=C1CCc2ccc(OCCCCN3CCc4ccsc4C3)nc2N1 [Compound 70] show?
output: < 10%
